# Test system: 616215-338-R-J1-PDC complex spheroids, viability % test/control
# test-name: Anticancer human tumor 616215-338-R-J1-PDC patient-derived colon adenocarcinoma cell line growth inhibition [CLK]
# test-parameters: second compound 0.316 µM; first compound 3.16 µM; stronger effect = lower value
Assign labels as follows, please: 1 for viability, T/C below 20%; 0 for viability, T/C equal to or exceeding 20%.

>>> classification("Nc1ccn(C2OC(CO)C(O)C2(F)F)c(=O)n1 (stereo not given) + CNC(=O)c1ccc(Nc2nc(OC3CCCC3)c3c(-c4ccc5nc(C)oc5c4)c[nH]c3n2)c(OC)c1")
1
>>> classification("C=C(F)C(=O)N1CCN(c2nc(OCC3CCCN3C)nc3c2CCN(c2cccc4cccc(Cl)c24)C3)CC1CC#N (stereo not given) + CN1CCN(c2cc(C(=O)Nc3cc4cc(-c5cnn(C)c5)ccc4cn3)ccn2)CC1")
1
>>> classification("COc1ccc([C@@H](O)c2cc(-c3ncnc4cc(N5CCOCC5)ccc34)c(F)cc2Cl)nn1 + CN1CCN(c2cc(C(=O)Nc3cc4cc(-c5cnn(C)c5)ccc4cn3)ccn2)CC1")
1
>>> classification("O=C(c1cc(Cc2n[nH]c(=O)c3ccccc23)ccc1F)N1CCN(C(=O)C2CC2)CC1 + CNC(=O)c1ccc(Nc2nc(OC3CCCC3)c3c(-c4ccc5nc(C)oc5c4)c[nH]c3n2)c(OC)c1")
0
>>> classification("C#Cc1c(F)ccc2cc(O)cc(-c3ncc4c(N5CC6CCC(C5)N6)nc(OCC56CCCN5CC(F)C6)nc4c3F)c12 (stereo not given) + CN1CCN(c2cc(C(=O)Nc3cc4cc(-c5cnn(C)c5)ccc4cn3)ccn2)CC1")
0
>>> classification("Nc1ccccc1NC(=O)c1ccc(CNC(=O)OCc2cccnc2)cc1 + CN1CCN(c2cc(C(=O)Nc3cc4cc(-c5cnn(C)c5)ccc4cn3)ccn2)CC1")
1
>>> classification("CC1(C)CCC(CN2CCN(c3ccc(C(=O)NS(=O)(=O)c4ccc(NCC5CCOCC5)c([N+](=O)[O-])c4)c(Oc4cnc5[nH]ccc5c4)c3)CC2)=C(c2ccc(Cl)cc2)C1 + CNC(=O)c1ccc(Nc2nc(OC3CCCC3)c3c(-c4ccc5nc(C)oc5c4)c[nH]c3n2)c(OC)c1")
0
>>> classification("CC(CO)NC(=O)c1cc(-c2ccc(Cl)cc2)nn(-c2cnn(C)c2)c1=O (stereo not given) + CNC(=O)c1ccc(Nc2nc(OC3CCCC3)c3c(-c4ccc5nc(C)oc5c4)c[nH]c3n2)c(OC)c1")
0

Please state whether viability, T/C is below 20% for COc1cccc2c1C(=O)c1c(O)c3c(c(O)c1C2=O)CC(O)(C(=O)CO)CC3OC1CC(N)C(O)C(C)O1 (stereo not given) + CNC(=O)c1ccc(Nc2nc(OC3CCCC3)c3c(-c4ccc5nc(C)oc5c4)c[nH]c3n2)c(OC)c1
1

Please state whether viability, T/C is below 20% for CC(Nc1ccc2c(c1)OCCn1cc(N3C(=O)OCC3C(F)F)nc1-2)C(N)=O (stereo not given) + CN1CCN(c2cc(C(=O)Nc3cc4cc(-c5cnn(C)c5)ccc4cn3)ccn2)CC1
1

---

# Test system: 616215-338-R-J1-PDC complex spheroids, viability % test/control
# test-name: Anticancer human tumor 616215-338-R-J1-PDC cell line growth inhibition [CLK]; active = viability on the fitted dose curve at most 10% of control; inactive = the rest;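 also: spheroids exposed to agents for 7 days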
# test-parameters: second compound 1 µM; first compound 0.0316 µM
Bench note: report the call from active, inactive

Sample answers from the record:
>>> classification("COc1ccc([C@@H](O)c2cc(-c3ncnc4cc(N5CCOCC5)ccc34)c(F)cc2Cl)nn1 + CN1CCN(c2cc(C(=O)Nc3cc4cc(-c5cnn(C)c5)ccc4cn3)ccn2)CC1")
"active"
>>> classification("Nc1ccn(C2OC(CO)C(O)C2(F)F)c(=O)n1 (stereo unspecified) + CN1CCN(c2cc(C(=O)Nc3cc4cc(-c5cnn(C)c5)ccc4cn3)ccn2)CC1")
"active"
>>> classification("CCc1c2c(nc3ccc(O)cc13)-c1cc3c(c(=O)n1C2)COC(=O)[C@]3(O)CC + CNC(=O)c1ccc(Nc2nc(OC3CCCC3)c3c(-c4ccc5nc(C)oc5c4)c[nH]c3n2)c(OC)c1")
"inactive"
>>> classification("CC1(C)CCC(CN2CCN(c3ccc(C(=O)NS(=O)(=O)c4ccc(NCC5CCOCC5)c([N+](=O)[O-])c4)c(Oc4cnc5[nH]ccc5c4)c3)CC2)=C(c2ccc(Cl)cc2)C1 + CN1CCN(c2cc(C(=O)Nc3cc4cc(-c5cnn(C)c5)ccc4cn3)ccn2)CC1")
"active"
>>> classification("Cn1ncnc1[C@H]1c2n[nH]c(=O)c3cc(F)cc(c23)N[C@@H]1c1ccc(F)cc1 + CNC(=O)c1ccc(Nc2nc(OC3CCCC3)c3c(-c4ccc5nc(C)oc5c4)c[nH]c3n2)c(OC)c1")
"inactive"
>>> classification("CC(CO)NC(=O)c1cc(-c2ccc(Cl)cc2)nn(-c2cnn(C)c2)c1=O (stereo unspecified) + CNC(=O)c1ccc(Nc2nc(OC3CCCC3)c3c(-c4ccc5nc(C)oc5c4)c[nH]c3n2)c(OC)c1")
"inactive"

What was the test verdict on O=C(c1cc(Cc2n[nH]c(=O)c3ccccc23)ccc1F)N1CCN(C(=O)C2CC2)CC1 + CN1CCN(c2cc(C(=O)Nc3cc4cc(-c5cnn(C)c5)ccc4cn3)ccn2)CC1 ?
active

What was the test verdict on CCc1c2c(nc3ccc(O)cc13)-c1cc3c(c(=O)n1C2)COC(=O)[C@]3(O)CC + CN1CCN(c2cc(C(=O)Nc3cc4cc(-c5cnn(C)c5)ccc4cn3)ccn2)CC1 ?
active

What was the test verdict on COC1C=CCC(C)C(C)S(=O)(=O)NC(=O)c2ccc3c(c2)N(CC2CCC21)CC1(CCCc2cc(Cl)ccc21)CO3 (stereo unspecified) + CN1CCN(c2cc(C(=O)Nc3cc4cc(-c5cnn(C)c5)ccc4cn3)ccn2)CC1 ?
active

What was the test verdict on CC(CO)NC(=O)c1cc(-c2ccc(Cl)cc2)nn(-c2cnn(C)c2)c1=O (stereo unspecified) + CN1CCN(c2cc(C(=O)Nc3cc4cc(-c5cnn(C)c5)ccc4cn3)ccn2)CC1 ?
active

What was the test verdict on COc1cccc2c1C(=O)c1c(O)c3c(c(O)c1C2=O)CC(O)(C(=O)CO)CC3OC1CC(N)C(O)C(C)O1 (stereo unspecified) + CNC(=O)c1ccc(Nc2nc(OC3CCCC3)c3c(-c4ccc5nc(C)oc5c4)c[nH]c3n2)c(OC)c1 ?
inactive

---

# System: 616215-338-R-J1-PDC complex spheroids, viability % test/control
# test-name: Anticancer human tumor 616215-338-R-J1-PDC cell line growth inhibition [CLK];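 also: spheroids exposed to agents for 7 days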
# test-parameters: curve of first compound; second compound 0.0316 µM
Assign labels as follows, please: rule met for IC50 below 700 nM; rule not met for IC50 equal to or exceeding 700 nM.

>>> classification("COc1ccc([C@@H](O)c2cc(-c3ncnc4cc(N5CCOCC5)ccc34)c(F)cc2Cl)nn1 + CNC(=O)c1ccc(Nc2nc(OC3CCCC3)c3c(-c4ccc5nc(C)oc5c4)c[nH]c3n2)c(OC)c1")
"rule not met"
>>> classification("CC(=O)O[C@H]1C(=O)[C@@]2(C)[C@H]([C@H](OC(=O)c3ccccc3)[C@]3(O)C[C@H](OC(=O)[C@H](O)[C@@H](NC(=O)c4ccccc4)c4ccccc4)C(C)=C1C3(C)C)[C@]1(OC(C)=O)CO[C@@H]1C[C@@H]2O + CNC(=O)c1ccc(Nc2nc(OC3CCCC3)c3c(-c4ccc5nc(C)oc5c4)c[nH]c3n2)c(OC)c1")
"rule met"
>>> classification("COc1cccc2c1C(=O)c1c(O)c3c(c(O)c1C2=O)CC(O)(C(=O)CO)CC3OC1CC(N)C(O)C(C)O1 (stereo not given) + CN1CCN(c2cc(C(=O)Nc3cc4cc(-c5cnn(C)c5)ccc4cn3)ccn2)CC1")
"rule met"

Please state whether IC50 is below 700 nM for CCN1CCN(Cc2ccc(Nc3ncc(F)c(-c4cc(F)c5nc(C)n(C(C)C)c5c4)n3)nc2)CC1 + CN1CCN(c2cc(C(=O)Nc3cc4cc(-c5cnn(C)c5)ccc4cn3)ccn2)CC1
rule not met

Please state whether IC50 is below 700 nM for C=C(F)C(=O)N1CCN(c2nc(OCC3CCCN3C)nc3c2CCN(c2cccc4cccc(Cl)c24)C3)CC1CC#N (stereo not given) + CNC(=O)c1ccc(Nc2nc(OC3CCCC3)c3c(-c4ccc5nc(C)oc5c4)c[nH]c3n2)c(OC)c1
rule not met

Please state whether IC50 is below 700 nM for C#Cc1c(F)ccc2cc(O)cc(-c3ncc4c(N5CC6CCC(C5)N6)nc(OCC56CCCN5CC(F)C6)nc4c3F)c12 (stereo not given) + CN1CCN(c2cc(C(=O)Nc3cc4cc(-c5cnn(C)c5)ccc4cn3)ccn2)CC1
rule not met

Please state whether IC50 is below 700 nM for CCN1CCN(Cc2ccc(Nc3ncc(F)c(-c4cc(F)c5nc(C)n(C(C)C)c5c4)n3)nc2)CC1 + CNC(=O)c1ccc(Nc2nc(OC3CCCC3)c3c(-c4ccc5nc(C)oc5c4)c[nH]c3n2)c(OC)c1
rule not met
